Molecular target: T1, human PD-1 (soluble analyte in SPR) (human, UniProt Q15116 25-170, limits assumed)
T1 construct: also called CD279; PDCD1
T1 sequence (Q15116 25-170 limits assumed): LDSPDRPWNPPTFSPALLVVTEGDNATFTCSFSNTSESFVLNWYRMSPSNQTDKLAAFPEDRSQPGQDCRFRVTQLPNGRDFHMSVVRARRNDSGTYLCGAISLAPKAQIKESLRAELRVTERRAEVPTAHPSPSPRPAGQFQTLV
Test: SPR (ProteOn XPR36), mAb from crude supernatant captured on anti-human IgG Fc, PD-1 as analyte, 25 C
property_name: Kd (nM)
Lab book: enter the figure in nM, no units written.

I'd like to know its Kd. The binder in question is PD1B848 (antibody, human IgG1, kappa, V domains shown, N55K variant of PD1B750, IgG1; tested as crude supernatant in SPR; also called VH PD1H402; VL PD1L470) VH: QVQLVQSGAEVKKPGASVKVSCKASGYTFTTYWMHWVRQAPGQGLEWMGEINPNKGGINYAQKFQGRVTLTVDKSISTAYMELSRLRSDDTAVYYCTIDYYDYGGYWGQGTLVTVSS VL: DIQMTQSPSSLSASVGDRVTITCKASQNVGTNVAWYQQKPEKAPKSLIYSASYRYSGVPSRFSGSGSGTDFTLTISSLQPEDFATYYCQQYNIYPYTFGQGTKLEIKR
39.2

I'd like to know its Kd. The binder in question is PD1B845 (antibody, human IgG1, kappa, V domains shown, G56A variant of PD1B750, IgG1; tested as crude supernatant in SPR; also called VH PD1H399; VL PD1L470) VH: QVQLVQSGAEVKKPGASVKVSCKASGYTFTTYWMHWVRQAPGQGLEWMGEINPNNAGINYAQKFQGRVTLTVDKSISTAYMELSRLRSDDTAVYYCTIDYYDYGGYWGQGTLVTVSS VL: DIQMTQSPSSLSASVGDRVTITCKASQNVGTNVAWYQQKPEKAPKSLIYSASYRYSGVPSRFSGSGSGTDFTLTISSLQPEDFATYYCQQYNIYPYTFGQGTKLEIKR
24
